assay_target: odorant-binding protein 14 (OBP14) (Apis mellifera, UniProt A0A8U0WQC3)
Construct: recombinant OBP14, cloning, expression and purification in supplement; immobilised via PBSE linker on reduced graphene oxide FET gate
Sequence (A0A8U0WQC3 17-135): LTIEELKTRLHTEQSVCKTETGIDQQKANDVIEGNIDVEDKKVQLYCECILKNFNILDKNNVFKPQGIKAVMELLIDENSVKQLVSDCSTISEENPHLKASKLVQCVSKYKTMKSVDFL
assay_overview: rGO-FET biosensor, real-time source-drain current, global Langmuir analysis
measurement_parameters: read-out: Homovanillic acid
reported_endpoint: Kd (µM)

> print(dat)
        compound.string                              assay.target  result.unit  readout.number
1  COc1cc(CC(=O)O)ccc1O  odorant-binding protein 14 (OBP14) (Apis mellifera, UniProt A0A8U0WQC3)           µM               4

----------
assay_target: odorant-binding protein 14 (OBP14) (Apis mellifera, UniProt A0A8U0WQC3)
Construct: recombinant OBP14, cloning, expression and purification in supplement; immobilised via PBSE linker on reduced graphene oxide FET gate
assay_overview: rGO-FET biosensor, real-time source-drain current, global Langmuir analysis
measurement_parameters: read-out: Methyl vanillate
reported_endpoint: Kd (µM)

> print(dat)
                                   molecule  reported.endpoint  readout.number
1  COC(=O)c1ccc(O)c(OC)c1 [Methyl vanillate]                 Kd              20

----------
assay_target: odorant-binding protein 14 (OBP14) (Apis mellifera, UniProt A0A8U0WQC3)
Construct: recombinant OBP14, cloning, expression and purification in supplement; immobilised via PBSE linker on reduced graphene oxide FET gate
assay_overview: rGO-FET biosensor, real-time source-drain current, global Langmuir analysis
measurement_parameters: read-out: Geraniol
Excerpt: rGO-FET biosensor, real-time source-drain current, global Langmuir analysis on odorant-binding protein 14 (OBP14)
pKd: −log10 of the molar value.
reported_endpoint: pKd

> print(dat)
       compound.string  reported.endpoint  readout.number
1  CC(C)=CCC/C(C)=C/CO                pKd            2.48

----------
assay_target: odorant-binding protein 14 (OBP14) (Apis mellifera, UniProt A0A8U0WQC3)
Construct: recombinant OBP14, cloning, expression and purification in supplement; immobilised via PBSE linker on reduced graphene oxide FET gate
assay_overview: rGO-FET biosensor, real-time source-drain current, global Langmuir analysis
measurement_parameters: read-out: Citral
pKd: −log10 of the molar value.
reported_endpoint: pKd

> print(dat)
      compound.string  reported.endpoint  readout.number
1  CC(C)=CCCC(C)=CC=O                pKd            3.10

----------
assay_target: odorant-binding protein 14 (OBP14) (Apis mellifera, UniProt A0A8U0WQC3)
Construct: recombinant OBP14, cloning, expression and purification in supplement; immobilised via PBSE linker on reduced graphene oxide FET gate
assay_overview: rGO-FET biosensor, real-time source-drain current, global Langmuir analysis
measurement_parameters: read-out: Methyl eugenol
pKd: −log10 of the molar value.
reported_endpoint: pKd

> print(dat)
        compound.string  reported.endpoint  readout.number
1  C=CCc1ccc(OC)c(OC)c1                pKd            2.85

----------
assay_target: odorant-binding protein 14 (OBP14) (Apis mellifera)
Construct: recombinant OBP14, cloning, expression and purification in supplement; immobilised via PBSE linker on reduced graphene oxide FET gate
assay_overview: rGO-FET biosensor, real-time source-drain current, global Langmuir analysis
measurement_parameters: read-out: Eugenol
reported_endpoint: Kd (µM)

> print(dat)
       compound.string  readout.number
1  C=CCc1ccc(O)c(OC)c1              40
